- System: C. elegans
- test description: microbe, parasite or virus in culture
- details: Caenorhabditis elegans, 0 h, read-out: Percentage of motility inhibition 0 h, Table S2, C. elegans SS assay, 110 μM, 0 h, averages of 4 data points
Answer N if inhibition at 110 µM is under 10%, and Y if it is 10% or more.

Would you please look over these solved cases?
molecule	class name
C[C@@H]1CC[C@]2(C(=O)O)CC[C@]3(C)C(=CC[C@@H]4[C@@]5(C)C[C@@H](O)[C@@H](O)C(C)(C)[C@@H]5CC[C@]43C)[C@@H]2[C@]1(C)O	Y
O=C(O)[C@H]1C2CCC(CC2)[C@@H]1Nc1nc(-c2c[nH]c3ncc(F)cc23)ncc1F	N
COc1ccc2c(OC)c3ccoc3nc2c1	N

Query molecule follows.
Request: Is reported inhibition at 110 µM greater than or equal to 10% here: CC1=CC(=O)c2ccccc2C1=O
Response: N

* * *

- Tested on: C. elegans
- details: Table S2, C. elegans SS assay, 110 μM, 0 h, averages of 4 data points
endpoint name: Percentage of motility inhibition 0 h
Answers without a unit are incomplete; give the number and then its unit.

molecule	Percentage of motility inhibition 0 h
CC(C)=CCC[C@@](C)(O)[C@H]1CC[C@]2(C)[C@@H]1[C@H](O)C[C@@H]1[C@@]3(C)CC[C@H](O)C(C)(C)[C@@H]3CC[C@]12C [(20R)-Protopanaxadiol]	0%
COC(=O)C1=CO[C@@H](C)[C@H]2CN3CC[C@]4(C(=O)Nc5ccccc54)[C@@H]3C[C@H]12 [Mitraphylline]	0%
COc1cc2c(cc1O)C[C@@H]1NCCc3cc(OC)c(O)c-2c31 [Norisoboldine]	0%

Request: // fetch Percentage of motility inhibition 0 h given entry C[C@@H]1O[C@@H](O[C@H]2[C@H](O[C@H]3[C@H](O[C@H]4CC[C@@]5(C)[C@@H](CC[C@]6(C)[C@@H]5CC=C5[C@@H]7CC(C)(C)C[C@@H](O)[C@]7(C)CC[C@]56C)[C@@]4(C)CO)O[C@H](C(=O)O)[C@@H](O)[C@@H]3O)O[C@H](CO)[C@H](O)[C@@H]2O)[C@H](O)[C@H](O)[C@H]1O [Soyasaponin Bb]
Response: 0%

Request: // fetch Percentage of motility inhibition 0 h given entry CNc1ccccc1C(=O)OC [Methyl N‐methylanthranilate]
Response: 30%

Request: // fetch Percentage of motility inhibition 0 h given entry Cl.Oc1ccc(CC2NCCc3cc(O)c(O)cc32)cc1 (stereo not shown) [Higenamine (hydrochloride)]
Response: 0%

* * *

- System: C. elegans
- details: Table S2, C. elegans SS assay, 110 μM, 0 h, averages of 4 data points
Answer false (0) if Percentage of motility inhibition 0 h is under 10%, and true (1) if it is 10% or more.

molecule	class name
C[C@@H]1O[C@@H](O[C@H]2[C@H](OC(=O)[C@]34CCC(C)(C)C[C@H]3C3=CC[C@@H]5[C@@]6(C)C[C@H](O)[C@H](O[C@@H]7O[C@H](CO)[C@@H](O)[C@H](O)[C@H]7O)[C@@](C)(CO)[C@@H]6CC[C@@]5(C)[C@]3(C)CC4)O[C@H](CO)[C@@H](O)[C@@H]2O)[C@H](O)[C@H](O)[C@H]1O[C@@H]1OC[C@@H](O)[C@H](O)[C@H]1O	false (0)

Request: Is reported Percentage of motility inhibition 0 h greater than or equal to 10% here: Br.CO[C@H]1CC=C2CCN3CCC4=C(CC(=O)OC4)[C@]23C1 [Dihydro‐β‐er ythroidine (hydrobromide)]
Response: false (0)

Request: Is reported Percentage of motility inhibition 0 h greater than or equal to 10% here: COc1ccc([C@@H]2COc3cc(O[C@@H]4O[C@H](CO)[C@@H](O)[C@H](O)[C@H]4O)ccc3C2)c(O)c1OC [Isomucronulatol 7‐O‐glucoside]
Response: false (0)

Request: Is reported Percentage of motility inhibition 0 h greater than or equal to 10% here: C=C1[C@H](OC(=O)/C=C(\C)CC)C[C@@H](C(C)C)[C@@H]2[C@@H]([C@@H](C)OC(C)=O)C(=O)C[C@@H]12
Response: true (1)

Request: Is reported Percentage of motility inhibition 0 h greater than or equal to 10% here: O=C(O)[C@H]1O[C@@H](Oc2cc(O)c3c(=O)cc(-c4ccc(O)cc4)oc3c2)[C@H](O)[C@@H](O)[C@@H]1O [Apigenin‐7‐glucuronide]
Response: true (1)

* * *

- Tested on: C. elegans
- details: Table S2, C. elegans SS assay, 110 μM, 0 h, averages of 4 data points
endpoint name: Percentage of motility inhibition 0 h (%)
Answer format: numeric, % implied, no suffix.

compound	Percentage of motility inhibition 0 h (%)
C=C1c2cccc(O)c2C(=O)C2=C(O)[C@]3(O)C(=O)C(C(N)=O)=C(O)[C@@H](N(C)C)[C@@H]3[C@@H](O)[C@H]12.Cl [Methacycline (hydrochloride)]	17
COc1ccc(/C=C/C(=O)c2c(O)cc(OC)cc2OC)cc1 [(E)‐Flavokawain A]	33
NC(N)=NCCCC(N)C(=O)O (racemic)	4
CC(=O)OCC1=C(C(=O)[O-])N2C(=O)[C@@H](NC(=O)Cc3cccs3)[C@H]2SC1.[Na+] [Cephalothin (sodium)]	9
CC(=O)Oc1ccc([C@@H]2CC(=O)c3c(OC(C)=O)cc(OC(C)=O)cc3O2)cc1 [Naringenin triacetate]	0
COc1cc(OC)c2c(=O)cc(-c3ccc(OC)c(OC)c3)oc2c1	0

API: the following record is the query input.
Request: // fetch Percentage of motility inhibition 0 h given entry O.O.O=c1c(O)c(-c2ccc(O)c(O)c2)oc2cc(O)cc(O)c12 [Quercetin (dihydrate)]
Response: 0

* * *

- Test system: C. elegans
- details: Table S2, C. elegans SS assay, 110 μM, 0 h, averages of 4 data points
Answer not satisfied if Percentage of motility inhibition 0 h is under 7%, and satisfied if it is 7% or more.

Would you please look over these solved cases?
compound	class name
CC1=C2[C@@H](OC1=O)[C@H](O)[C@]13[C@H]4C[C@@H](C(C)(C)C)[C@]15[C@@H](OC(=O)[C@@H]5O)O[C@@]23C(=O)O4 [Ginkgolide K]	not satisfied
COc1cc(C(=O)OCCCCN=C(N)N)cc(OC)c1O.Cl [Leonurine (hydrochloride)]	not satisfied
CN1CC[C@@]23C=C[C@H](O)C[C@@H]2Oc2c(O)ccc(c23)C1	not satisfied
C[C@H](CCC(=O)NCC(=O)O)[C@H]1CC[C@H]2[C@@H]3CC[C@@H]4C[C@H](OS(=O)(=O)O)CC[C@]4(C)[C@H]3CC[C@]12C [Glycolithocholic acid 3-sulfate]	satisfied

Request: Is reported Percentage of motility inhibition 0 h greater than or equal to 7% here: Oc1cc(O)c2c(c1)O[C@@]1(c3ccc(O)c(O)c3)Oc3cc(O)c4c(c3[C@@H]2[C@H]1O)O[C@H](c1ccc(O)c(O)c1)[C@H](O)[C@H]4c1c(O)cc(O)c2c1O[C@H](c1ccc(O)c(O)c1)[C@H](O)C2
Response: not satisfied

Request: Is reported Percentage of motility inhibition 0 h greater than or equal to 7% here: C=C1C(=O)O[C@H]2C[C@@H](C)[C@@H]3[C@@H](OC(C)=O)C[C@H](O)[C@@]3(C)[C@@H](OC(C)=O)[C@H]12
Response: satisfied

* * *

- System: C. elegans
- test description: microbe, parasite or virus in culture
- details: Caenorhabditis elegans, 24 h, read-out: Percentage of motility inhibition 24 h, Table S2, C. elegans SS assay, 110 μM, 24 h, averages of 4 data points
Answer class 0 if inhibition at 110 µM is under 10%, and class 1 if it is 10% or more.

Would you please look over these solved cases?
compound	class name
COc1ccc(O)cc1 [Mequinol]	class 1
c1ccc(-c2ccc(C(c3ccccc3)n3ccnc3)cc2)cc1 (stereo not drawn) [Bifonazole]	class 1
C[C@H]1[C@H](C)CC[C@]2(C(=O)O)CC[C@]3(C)C(=CC[C@@H]4[C@@]5(C)C[C@@H](O)[C@H](O)[C@@](C)(CO)[C@@H]5[C@H](O)C[C@]43C)[C@H]12 [Madecassic acid]	class 1
C1CNCCN1 [Piperazine]	class 0

Request: Is reported inhibition at 110 µM greater than or equal to 10% here: C=C1CC[C@@H]2[C@](C)(CO)[C@H](O)CC[C@@]2(C)[C@@H]1C/C=C1/C(=O)OC[C@H]1O [Andrographolide]
Response: class 1

Request: Is reported inhibition at 110 µM greater than or equal to 10% here: C=C1C=CC(C(C)C)CC1 (stereo not drawn) [β-Phellandrene]
Response: class 1

* * *

# Percentage of motility inhibition 0 h listing for each entry below
- Tested on: C. elegans
- details: Table S2, C. elegans SS assay, 110 μM, 0 h, averages of 4 data points
Answer format: numeric, % implied, no suffix.

Some entries whose results are on file:
molecule	measurement target	Percentage of motility inhibition 0 h (%)
C[C@H]1C(=O)O[C@@H]2CCN3CC=C(COC(=O)[C@](C)(O)[C@]1(C)O)[C@H]23	C. elegans	2
CC(=O)O[C@@H]1[C@@H](O)[C@H](O[C@H]2CC[C@]34C[C@]35CC[C@]3(C)[C@@H]([C@@]6(C)CC[C@@H](C(C)(C)O)O6)[C@@H](O)C[C@@]3(C)[C@@H]5C[C@H](O[C@@H]3O[C@H](CO)[C@@H](O)[C@H](O)[C@H]3O)[C@H]4C2(C)C)OC[C@H]1O [Isoastragaloside II]	C. elegans	0
CO[C@@H]1[C@@H](OC(N)=O)[C@@H](O)[C@H](Oc2ccc3c([O-])c(NC(=O)c4ccc(O)c(CC=C(C)C)c4)c(=O)oc3c2C)OC1(C)C.[Na+] [Novobiocin (Sodium)]	C. elegans	25
CC(=O)O[C@H]1[C@H](O[C@H]2CC[C@]34C[C@]35CC[C@]3(C)[C@@H]([C@@]6(C)CC[C@@H](C(C)(C)O)O6)[C@@H](O)C[C@@]3(C)[C@@H]5C[C@H](O[C@@H]3O[C@H](CO)[C@@H](O)[C@H](O)[C@H]3O)[C@H]4C2(C)C)OC[C@@H](O)[C@@H]1O [Astragaloside II]	C. elegans	5
COc1cc2c(cc1O)CC[n+]1cc3c(OC)c(OC)ccc3cc1-2.[OH-] [Jatrorrhizine (hydroxide)]	C. elegans	8
C[C@@H]1CC[C@@]2(OC1)O[C@H]1C[C@H]3[C@@H]4CC=C5C[C@@H](O[C@@H]6O[C@H](CO)[C@@H](O[C@@H]7O[C@H](CO)[C@@H](O)[C@H](O[C@@H]8O[C@H](CO)[C@@H](O)[C@H](O)[C@H]8O)[C@H]7O)[C@H](O)[C@H]6O[C@@H]6O[C@@H](C)[C@H](O)[C@@H](O)[C@H]6O)CC[C@]5(C)[C@H]4CC[C@]3(C)[C@H]1[C@@H]2C	C. elegans	0

Request: // fetch Percentage of motility inhibition 0 h given entry CN(C)[C@@H]1C(=O)C(C(N)=O)=C(O)[C@@]2(O)C(=O)C3=C(O)c4c(O)cccc4[C@@](C)(O)[C@H]3C[C@@H]12.Cl [Tetracycline (hydrochloride)]
Response: 26

Request: // fetch Percentage of motility inhibition 0 h given entry COc1ccc(-c2oc3c(CC=C(C)C)c(O[C@@H]4O[C@H](CO)[C@@H](O)[C@H](O)[C@H]4O)cc(O)c3c(=O)c2O[C@@H]2O[C@@H](C)[C@H](O)[C@@H](O)[C@H]2O[C@@H]2OC[C@@H](O)[C@H](O)[C@H]2O)cc1 [Epimedin B]
Response: 15

Request: // fetch Percentage of motility inhibition 0 h given entry NC(=O)C[C@H](N)C(=O)O
Response: 27

All figures here come from paper PMC11855827.
